# Assay System: T1, canine NGF tagged at the C-terminus with the Flag tag (canine, UniProt A0A8I3PYI3 122-241)
# T1 construct: mature; Expressed with baculovirus technology; also called feline NGF (processed form identical)
# T1 sequence (A0A8I3PYI3 entry or part of it): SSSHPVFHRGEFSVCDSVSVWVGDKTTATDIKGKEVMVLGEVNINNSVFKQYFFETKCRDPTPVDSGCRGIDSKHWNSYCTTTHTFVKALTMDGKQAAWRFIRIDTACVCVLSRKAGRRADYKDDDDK
# Method Notes: SPR off-rate assay, Fab-SASA on BSA chip
Can you tell me pKd for the items I'm about to list?
One number for each entry, as −log10 of the molar value.

Here is how some binders turned out for pKd.
{"columns": ["Binder", "pKd"],
 "data": [
  ["AHF17592 (Fab, V domains shown, not shown: small tags and cut ends) VH: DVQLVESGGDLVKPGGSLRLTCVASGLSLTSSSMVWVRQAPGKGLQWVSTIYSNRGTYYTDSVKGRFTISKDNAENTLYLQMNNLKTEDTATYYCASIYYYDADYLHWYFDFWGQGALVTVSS VL: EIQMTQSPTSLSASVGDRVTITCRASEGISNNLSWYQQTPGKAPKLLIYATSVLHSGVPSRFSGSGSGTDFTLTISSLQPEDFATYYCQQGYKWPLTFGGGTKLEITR", 10.12],
  ["AHF17603 (Fab, V domains shown, not shown: small tags and cut ends) VH: DVQLVESGGDLVKPGGSLRLTCVASGLSLTSSSMVWVRQAPGKGLQWVSTIYSNGGTYYTDSVKGRFTISKDNAENTLYLQMNNLKTEDTATYYCASIYYYDADYLHWYFDEWGQGALVTVSS VL: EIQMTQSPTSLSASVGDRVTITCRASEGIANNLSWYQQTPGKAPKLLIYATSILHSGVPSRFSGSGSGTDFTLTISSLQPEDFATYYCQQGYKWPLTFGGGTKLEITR", 9.18]
]}

Now look at this one.
Req: Entry AHF17605 (Fab, V domains shown, not shown: small tags and cut ends, Fab-SASA, combinatorial library) VH: DVQLVESGGDLVKPGGSLRLTCVASGLSLTSSSMVWVRQAPGKGLQWVSTIYSNGGTYYTDSVKGRFTISKDNAENTLYLQMNNLKTEDTATYYCAQIYYYDADYLHWYFDFWGQGALVTVSS VL: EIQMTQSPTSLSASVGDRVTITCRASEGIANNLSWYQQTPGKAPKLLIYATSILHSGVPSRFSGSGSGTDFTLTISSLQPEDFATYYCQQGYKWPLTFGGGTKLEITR has what pKd?
Resp: 9.09
